# experimental protocol: Viability Counterscreen for Primary qHTS for Inhibitors of ATXN expression; also: nearly all actives have a fitted effect of over 40% in size
# test settings: S2 cells (HEK-293 line with an ATXN2-luciferase reporter) viability, CellTiter-Fluor protease fluorescence, 24 h; series mostly up to 56.7 µM
# Method: Spinocerebellar ataxia type 2 (SCA2) is a multisystem neurodegenerative disease caused by a dominantly-acting mutation leading to expansion of a polyQ domain in the ataxin-2 protein (ATXN2). […] 7; Detection; Fluorescence; ViewLux plate reader (PerkinElmer). […] 10; Detection; Luminescence; ViewLux plate reader (PerkinElmer). […] 10. Luminescence is then measured on the ViewLux imager equipped with a clear emission filter using a 2 sec exposure. […]
About 1,900 (0.47%) of roughly 400,000 compounds were called active. Roughly 14% stayed inconclusive and do not appear here. Calls follow the shape of the dose curve; as a rule, active = well fitted cell-killing curve with a large enough effect; inconclusive = small, poorly fitted or top-dose-only effect, or effect the other way; inactive = no such curve, though single readings can be large or run the other way. This excerpt belongs to a sample that is enriched for actives.
Labels: active, inactive

compound	label
COc1ccc(C2OC(CCc3ccccc3)Cc3[nH]c(=S)[nH]c(=O)c32)cc1 (stereo not drawn)	inactive
CCc1nc2c(OCc3ccc(Cl)cc3Cl)cccn2c1N(C)C(=O)C(C)C	active
COc1cccc(NC(=O)C2CCN(c3cc(C)nc4c(-c5ccc(Cl)cc5)c(C)nn34)CC2)c1	inactive
CC[C@]1(O)C[C@@H]2CN(CCc3c([nH]c4ccccc34)[C@@](C(=O)OC)(c3cc4c(cc3OC)N(C)[C@H]3[C@@](O)(C(=O)OC)[C@H](OC(C)=O)[C@]5(CC)C=CCN6CC[C@]43[C@@H]65)C2)C1	active
O=C(Nc1cccc2cccnc12)c1ccc2sc([C@H]3C[C@H](O)[C@@H](CO)O3)nc2c1	inactive
COc1ccc(-n2nc3c(N4CCC(C(=O)NCc5ccccc5)CC4)nnc(C)c3c2C)cc1	inactive
Cc1cnc(C)c(-c2cc(F)c3c(c2)CC(CNC(=O)c2cccc(Cn4cccn4)c2)O3)n1 (stereo not drawn)	inactive
CC(=O)Nc1ccccc1-c1nc(CNC(=O)c2ccc(Cl)cc2)c(C)o1	inactive

----------
# experimental protocol: Viability Counterscreen for Primary qHTS for Inhibitors of ATXN expression; also: nearly all actives have a fitted effect of over 40% in size; also: potency is read from the fitted curve at half-maximal effect
# test settings: S2 cells (HEK-293 line with an ATXN2-luciferase reporter) viability, CellTiter-Fluor protease fluorescence, 24 h; series mostly up to 56.7 µM
About 1,900 (0.47%) of roughly 400,000 compounds were called active. Roughly 14% stayed inconclusive and do not appear here. The sample as a whole holds a higher share of actives than the screen did.

molecule	Potency
Cc1oc(-c2cccc(NC(=O)c3ccccc3)c2)nc1CNC(=O)c1cnc2ccccn2c1=O	inactive
CC1=NNC(=O)C1CCC(=O)N/N=C(\C)c1ccc(Cl)cc1 (stereo not drawn)	inactive
C=CC[C@@H](CC(=O)N[C@H](CO)Cc1ccccc1)C(=O)N[C@H](C)COC(=O)[C@@H](CC=C)Cc1ccc(F)cc1	inactive
CCCCNC(=O)C1CCC(CNS(=O)(=O)c2ccc(NC(C)=O)cc2)CC1 (stereo not drawn)	inactive
COC(=O)C1CCCCN1Cc1ccc2c(c1)CN(Cc1cc(OC)c3c(c1)OCO3)CCO2 (stereo not drawn)	inactive
CCOC(=O)Cc1cccc(-c2cc(CCCCCCc3ccc(O[C@H]4O[C@H](COC(C)=O)[C@@H](OC(C)=O)[C@H](OC(C)=O)[C@@H]4OC(C)=O)c(-c4cccc(CC(=O)OCC)c4)c3)ccc2O[C@H]2O[C@H](COC(C)=O)[C@@H](OC(C)=O)[C@H](OC(C)=O)[C@@H]2OC(C)=O)c1	inactive
Cc1cc(NC(=O)C2CCC(CNS(=O)(=O)c3ccc(Br)s3)CC2)ccc1Br (stereo not drawn)	35.5 µM (active)
COc1ccc(/C(C)=N\NC(=O)c2ccc(-c3ccccc3)cc2)c(F)c1	inactive
CC(=O)NC(Cc1c[nH]c2ccccc12)C(=O)NCCc1ccccc1 (stereo not drawn)	inactive
NC(=O)NC(CC(=O)NNC(=O)c1ccccn1)c1ccc(Cl)cc1 (stereo not drawn)	inactive
C=CCC[C@H](Cc1ccc(F)cc1)C(=O)OC[C@@H](NC(=O)[C@@H](CC=C)CC(=O)N[C@H](CO)Cc1ccccc1)C(C)(C)C	31.6 µM (active)
C[C@@H]1CCC[C@H](C)N1CCCC(O)(c1ccccc1)c1ccccn1 (stereo partly drawn)	inactive
CNc1cncc(-c2ccc(NS(C)(=O)=O)cc2)n1	inactive
COc1ccc2nc(-c3ccccn3)ccc2c1	inactive
COc1cnc(-c2ccccn2)nc1Oc1ccc(C(C)(C)C)cc1	10 µM (active)
Cc1nc2nc(NCc3cccc(Br)c3)[nH]n2c(=O)c1Cc1ccccc1	inactive
COC(=O)c1ccc2nc(-c3ccc(OC)c(OC)c3)c(Cc3ccccc3)n2c1	inactive
COc1ccc(NC(=O)C2CCC(CNS(=O)(=O)c3csc(C(N)=O)c3)CC2)cc1OC (stereo not drawn)	inactive

----------
# experimental protocol: Viability Counterscreen for Primary qHTS for Inhibitors of ATXN expression; also: nearly all actives have a fitted effect of over 40% in size
# test settings: S2 cells (HEK-293 line with an ATXN2-luciferase reporter) viability, CellTiter-Fluor protease fluorescence, 24 h; series mostly up to 56.7 µM
Screen size: about 400,000 compounds; about 1,900 (0.47%) were called active. Roughly 14% stayed inconclusive and do not appear here. The call rests on the fitted dose curve; in most records, active means well fitted cell-killing curve with a large enough effect; inconclusive means small, poorly fitted or top-dose-only effect, or effect the other way; inactive means no such curve, though single readings can be large or run the other way. For the sample, actives were picked, then their nearest neighbours and some compounds at random.
Labels: YES (active), NO (inactive)

compound	label
CSc1nnc(NC(=O)c2nc(S(=O)(=O)Cc3ccc(C)cc3)ncc2Cl)s1	YES
O=[N+]([O-])c1c(NCCO)cc(Sc2nc3ccccc3s2)c2nonc12	YES
O=C(NC(=O)c1ccccc1)Nc1ccccc1O	NO
O=C(OCCN1CCOCC1)c1cccnc1Nc1cccc(C(F)(F)F)c1	NO
CCCCOC(=O)/C(C#N)=C/c1ccc(-c2cccc(C(F)(F)F)c2)o1	NO
COc1ccc(C(C#N)=C2C=CC(=NO)c3ccccc32)cc1	NO
Cc1ccc(CNC(=O)CSC2=Nc3ccccc3C3=NC(C)C(=O)N23)cc1 (configuration not stated)	NO
COc1ccc(NC(=O)C2(C)Cc3c(-c4cccc(NC(C)=O)c4)ccnc3O2)cc1OC (configuration not stated)	NO
CC[n+]1cc(C)ccc1/C=C/c1ccc(N(C)C)cc1	YES
NC(Cc1ccccc1)c1csc(Nc2cc(Oc3ccccc3)ncn2)n1 (configuration not stated)	YES
CO[C@H]1[C@H](NC(=O)C(C)C)c2ccccc2C12CCN(Cc1cnc(N(C)C)s1)CC2	NO
CC(C)c1ccc(S(=O)(=O)Nc2ccc(O)c(Sc3nc4ccccc4s3)c2)cc1	NO
CC(C)(C)c1ccc(S(=O)(=O)Nc2ccc(O)c(Sc3nc4ccccc4s3)c2)cc1	NO
CC1(Cc2cccc(C#N)c2)C(=O)Nc2ccc(-c3cccc(C(F)(F)F)c3)cc21 (configuration not stated)	YES
CCOc1ccc(NC(=O)c2nc(SCC)ncc2Cl)cc1	NO
O=c1cc(O)c(-c2cccc(C(F)(F)F)c2)c(Cl)[nH]1	NO
O=C(CSc1ncn[nH]1)Nc1ccc(Br)cc1Br	NO

----------
# experimental protocol: Viability Counterscreen for Primary qHTS for Inhibitors of ATXN expression; also: nearly all actives have a fitted effect of over 40% in size
# test settings: S2 cells (HEK-293 line with an ATXN2-luciferase reporter) viability, CellTiter-Fluor protease fluorescence, 24 h; series mostly up to 56.7 µM
Hit rate of the full screen: of about 400,000 compounds, about 1,900 (0.47%) were called active. About 14% were inconclusive and are not listed. Calls come from the whole dose curve; as a rule, active = well fitted cell-killing curve with a large enough effect; inconclusive = small, poorly fitted or top-dose-only effect, or effect the other way; inactive = no such curve, though single readings can be large or run the other way. The sample holds actives, similar compounds and a random draw of the others, so the mix is not that of the screen.
Labels: True (active), False (inactive)

compound	label
COc1ccc(C(O)c2nc(-c3ccc(OC)nc3)cs2)cc1 (configuration not stated)	False
COc1cc(/C=C/C(N)=O)cc(OC)c1OC	False
CCCOc1ccc(F)cc1-c1cc(C(=O)Nc2ccc(F)c(Cl)c2)[nH]n1	False
CCCCS(=O)(=O)c1oc(-c2cccs2)nc1S(=O)(=O)c1ccccc1	True
Cc1ccccc1-c1ccc2c(c1)O[C@@H](CN(C)Cc1ccc(C(=O)O)cc1)[C@@H](C)CN([C@H](C)CO)S2(=O)=O	False
c1ccc(C[C@H]2CNCCN2CCC23CC4CC(CC(C4)C2)C3)cc1	True
COc1ccc(CN2CCC3(CCC(CNC(=O)c4ccco4)O3)CC2)cc1OC (configuration not stated)	False

----------
# experimental protocol: Viability Counterscreen for Primary qHTS for Inhibitors of ATXN expression; also: nearly all actives have a fitted effect of over 40% in size
# test settings: S2 cells (HEK-293 line with an ATXN2-luciferase reporter) viability, CellTiter-Fluor protease fluorescence, 24 h; series mostly up to 56.7 µM
# Method: Spinocerebellar ataxia type 2 (SCA2) is a multisystem neurodegenerative disease caused by a dominantly-acting mutation leading to expansion of a polyQ domain in the ataxin-2 protein (ATXN2). […] 7; Detection; Fluorescence; ViewLux plate reader (PerkinElmer). […] 10; Detection; Luminescence; ViewLux plate reader (PerkinElmer). […] 10. Luminescence is then measured on the ViewLux imager equipped with a clear emission filter using a 2 sec exposure. […]
Screen size: about 400,000 compounds; about 1,900 (0.47%) were called active. Not shown: some 14% with an inconclusive outcome. The call rests on the fitted dose curve; in most records, active means well fitted cell-killing curve with a large enough effect; inconclusive means small, poorly fitted or top-dose-only effect, or effect the other way; inactive means no such curve, though single readings can be large or run the other way. Many of the other results were omitted from the sample, so actives are more common in it than they were.
Labels: active, inactive

molecule	label
CCOc1ccc(N2CC(c3nc4ccccc4n3CCOc3ccc(OC)cc3)CC2=O)cc1 (configuration not stated)	inactive
CCc1ccccc1N1CC(c2nc3ccccc3n2CCCCOc2ccccc2)CC1=O (configuration not stated)	inactive
O=C(NCC(c1ccc2c(c1)OCO2)N1CCN(c2ccccc2)CC1)C(=O)Nc1ccccc1F (configuration not stated)	inactive
COc1ccccc1-c1nnc2n1N=C(c1ccc(OC(F)F)c(OCC3CC3)c1)CS2	inactive
Cn1c(=O)[nH]c(=O)c2c1nc(N1CCN(C(c3ccccc3)c3ccccc3)CC1)n2CCO	active
CN1CCCCCC1C(=O)NCCN1Cc2ccccc2OC(c2ccsc2)C1 (configuration not stated)	inactive
CC1=Nn2c(nnc2-c2ccccc2)SC1	inactive
Cc1cc2ncn(CCCCOc3ccccc3)c2cc1C	inactive
NCCCNC(=S)NCCCN(Cc1ccc(Cl)cc1)c1ccc(Br)cn1	active
Cc1ncc2c(c1CNS(=O)(=O)N(C)C)CCN(C(=O)c1ccccc1F)C2	inactive
CN1CCN(c2nc3c(c(=O)[nH]c(=O)n3C)n2Cc2cccc3ccccc23)CC1	inactive
Cc1cc(-c2ccnc(-n3ncc(C(=O)NCCc4ccncc4)c3C)n2)c(C)s1	inactive
COC(=O)c1ccc(CN2C(=O)C(Cc3ccccc3)ON=C2c2ncccc2C)o1 (configuration not stated)	inactive
COc1ccc(C)cc1N1C(=O)[C@@H]2C[C@H]1CN2Cc1cccc(OC)c1O	inactive
CCCCN1CC(c2nc3ccccc3n2CCCCOc2ccc(C)cc2C)CC1=O (configuration not stated)	active
S=C(NCCCc1ccccc1)Nc1ccc(Br)cc1	inactive
COC(=O)c1ccccc1-c1cc(C)cc2c1OC(CNC(=O)C1CCOC1)C2 (configuration not stated)	inactive
